- Tgt: MASP-2 CCP2-SP (Homo sapiens (Human), UniProt O00187)
- Sequence (O00187 445-686): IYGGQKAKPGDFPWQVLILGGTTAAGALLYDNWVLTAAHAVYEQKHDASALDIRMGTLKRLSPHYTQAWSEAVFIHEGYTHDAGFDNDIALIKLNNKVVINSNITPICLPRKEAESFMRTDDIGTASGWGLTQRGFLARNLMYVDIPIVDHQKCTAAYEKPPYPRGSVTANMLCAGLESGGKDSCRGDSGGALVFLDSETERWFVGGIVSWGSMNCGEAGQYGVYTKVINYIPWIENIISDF
- Sequence (O00187 364-432 partner): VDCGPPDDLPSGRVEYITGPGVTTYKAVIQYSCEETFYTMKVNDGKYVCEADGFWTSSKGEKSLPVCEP
- Experimental Protocol: MASP-2 co-crystallization, X-ray crystallography and structure analysis (H-bonds, van der Waals contacts)
- Test Parameters: Table A6-2 pharmacophore angle
Parameter: a(O2, N2, CA3)
Reply with just the number.

A selection of reference data follows.
• CC(NC(=O)C(CCc1ccccc1)NCc1ccc(C(=O)N2CCOCC2)cc1)C(=O)NCc1ccc(C(=N)N)cc1.Cl.Cl (centres unmarked) [1153_A] = 157.4
• CC(=O)Nc1ccc(CCNC(CCc2ccccc2)C(=O)NC(C)C(=O)NCc2ccc(C(=N)N)cc2)cc1.Cl.Cl (centres unmarked) [1345_2] = 151.66
• C[C@H](NC(=O)[C@@H](CCc1ccccc1)NCCCc1ccc(O)cc1)C(=O)NCc1ccc(C(=N)N)cc1.Cl.Cl [1145_B] = 161.48
• CC(NC(=O)C(CCc1ccccc1)NCCCc1ccc(O)cc1)C(=O)NCc1ccc(C(=N)N)cc1.Cl.Cl (centres unmarked) [1145_A] = 161.48

Below: the item to evaluate.
Query: Which a(O2, N2, CA3) value belongs to CC(=O)Nc1ccc(CCNC(CCc2ccccc2)C(=O)NC(C)C(=O)NCc2ccc(C(=N)N)cc2)cc1.Cl.Cl (centres unmarked) [1345_1] ?
Response: 153.91

----------
d(O2,N2) values for the compounds below.
- Tgt: MASP-2 CCP2-SP (Homo sapiens (Human), UniProt O00187)
- Experimental Protocol: MASP-2 co-crystallization, X-ray crystallography and structure analysis (H-bonds, van der Waals contacts)
- Test Parameters: Table A5-2 pharmacophore distance, S3/S4 region
Output spec: single numeric token, no unit.

Query: Please tell me: d(O2,N2) of C[C@H](NC(=O)[C@H]1C[C@@H](c2ccccc2)CCN1)C(=O)NCc1cc(Cl)ccc1O.Cl [1078_3] , system MASP-2 CCP2-SP (Homo sapiens (Human), UniProt O00187)?
Response: 2.79

Query: Then what about the compound Cc1nc(N)ccc1CNC(=O)[C@H](C)NC(=O)[C@H]1C[C@H](Cc2cccc(Cl)c2)CN1.Cl.Cl [1328_2] ?
Response: 2.75

Query: Now try `C[C@H](NC(=O)[C@H](N)CCc1cccc(Cl)c1)C(=O)NCc1ccc(C(=N)N)cc1` .
Response: 2.76

Query: Cool, now `Cc1nc(N)ccc1CNC(=O)[C@H](C)NC(=O)[C@H]1C[C@H](Cc2cccc(-c3ccccc3)c2)CN1`
Response: 2.64

----------
- Tgt: MASP-2 CCP2-SP (Homo sapiens (Human), UniProt O00187)
- Experimental Protocol: MASP-2 co-crystallization, X-ray crystallography and structure analysis (H-bonds, van der Waals contacts)
- Test Parameters: Table A8-6; nearest protein atom in cell to the left
Parameter: Pharmacophore protein distance to SER_611
Lab note: jot the number down without any unit.

Example cases with answers are listed next.
* C[C@H](NC(=O)[C@H]1C[C@@H](c2ccccc2)CCN1)C(=O)NCc1cc(Cl)ccc1O.Cl [1078_10] | 2.78
* O=c1oc(-c2ccccc2[N+](=O)[O-])nc2ccccc12 | 2.64
* C[C@H](NC(=O)[C@H]1C[C@@H](c2ccccc2)CN1)C(=O)NCc1ccc2c(N)nccc2c1.Cl.Cl [1089_A] | 2.79

We now examine a further compound.
Query: Form: Entry = C[C@H](NC(=O)[C@H](N)CCCc1ccccc1)C(=O)NCc1ccc(C(=N)N)cc1.Cl.Cl [1042_2] | System = MASP-2 CCP2-SP (Homo sapiens (Human), UniProt O00187) | Pharmacophore protein distance to SER_611 = ____
Response: 2.54
